# credit: patent EP1614683B1

measurement_notes: in vivo
condition_notes: mouse, plasma, ip, 25 mg/kg, pH 2.3
Assign 1 whenever AUC does not fall below 9000 ng·h/mL; assign -1 whenever it does.

{"molecule": "Cn1nc(C(C)(C)C)cc1C(=O)Nc1cccc(C(=O)c2ccc3c(/C=C/c4ccccn4)n[nH]c3c2)c1 [41 (n)]", "classification": 1}
{"molecule": "Cc1ccc2cc(NC(=O)c3ccccc3Sc3ccc4c(/C=C/c5ccccn5)n[nH]c4c3)ccc2n1 [Reference Example 33(b)]", "classification": 1}
{"molecule": "CCn1nc(C)cc1C(=O)Nc1cccc(Oc2ccc3c(/C=C/c4ccccn4)n[nH]c3c2)c1 [Reference Example 31(d)]", "classification": 1}
{"molecule": "O=C(Nc1cccc(Oc2ccc3c(/C=C/c4c[nH]cn4)n[nH]c3c2)c1)c1ccccc1 [Reference Example 32(a)]", "classification": 1}
{"molecule": "O=C(c1cccc(NC(=O)c2ccccn2)c1)c1ccc2c(/C=C/c3ccccc3)n[nH]c2c1 [19(k)]", "classification": -1}
{"molecule": "Cc1cc(C(=O)Nc2cccc(C(=O)c3ccc4c(/C=C/c5ccccn5)n[nH]c4c3)c2)cc(Cl)n1 [41 (q)]", "classification": 1}
{"molecule": "O=C(Nc1cccc(C(=O)c2ccc3c(/C=C/c4ccccc4)n[nH]c3c2)c1)c1ccncc1 [19(j)]", "classification": 1}
{"molecule": "CCn1nc(C)cc1C(=O)Nc1cccc(C(=O)c2ccc3c(/C=C/c4ccccn4)n[nH]c3c2)c1 [41 (a)]", "classification": 1}
{"molecule": "O=C(Nc1ccccc1)c1ccccc1Sc1ccc2c(/C=C/c3ccccn3)n[nH]c2c1 [Reference Example 33(c)]", "classification": -1}
{"molecule": "CNC(=O)c1ccccc1Sc1ccc2c(/C=C/c3ccccn3)n[nH]c2c1 [Reference Example 33(a)]", "classification": 1}
{"molecule": "CC(=O)c1ccc(C(=O)Nc2cccc(C(=O)c3ccc4c(/C=C/c5ccccn5)n[nH]c4c3)c2)s1 [41 (e)]", "classification": -1}
{"molecule": "CC1CC1C(=O)Nc1cccc(C(=O)c2ccc3c(/C=C/c4ccccn4)n[nH]c3c2)c1 (stereo not shown) [41 (h)]", "classification": 1}
{"molecule": "O=C(c1cccc(NC(=O)c2ccc(Cl)s2)c1)c1ccc2c(/C=C/c3ccccn3)n[nH]c2c1 [Reference Example 41(o)]", "classification": 1}
{"molecule": "Cc1cc(C(=O)Nc2cccc(C(=O)c3ccc4c(/C=C/c5ccccn5)n[nH]c4c3)c2)n(C)n1 [41 (p)]", "classification": -1}
{"molecule": "O=C(Nc1cccc(Oc2ccc3c(/C=C/c4ccccn4)n[nH]c3c2)c1)c1ccccc1 [Reference Example 31(a)]", "classification": 1}
